assayed.target: Prp43 R159A (UniProt P53131 1-767, R159A)
test.method.notes: filter binding
experimental.readout: Kd (nM)
State the answer as a number, implicitly in nM.

(Q) Quick check: Kd of GACGGGCUGUUGGUGAUGGAC (ssRNA) [21-mer ssRNA] ?
(A) 18
